- Target system: human GR (Homo sapiens, UniProt P04150)
- Sequence (P04150 whole entry): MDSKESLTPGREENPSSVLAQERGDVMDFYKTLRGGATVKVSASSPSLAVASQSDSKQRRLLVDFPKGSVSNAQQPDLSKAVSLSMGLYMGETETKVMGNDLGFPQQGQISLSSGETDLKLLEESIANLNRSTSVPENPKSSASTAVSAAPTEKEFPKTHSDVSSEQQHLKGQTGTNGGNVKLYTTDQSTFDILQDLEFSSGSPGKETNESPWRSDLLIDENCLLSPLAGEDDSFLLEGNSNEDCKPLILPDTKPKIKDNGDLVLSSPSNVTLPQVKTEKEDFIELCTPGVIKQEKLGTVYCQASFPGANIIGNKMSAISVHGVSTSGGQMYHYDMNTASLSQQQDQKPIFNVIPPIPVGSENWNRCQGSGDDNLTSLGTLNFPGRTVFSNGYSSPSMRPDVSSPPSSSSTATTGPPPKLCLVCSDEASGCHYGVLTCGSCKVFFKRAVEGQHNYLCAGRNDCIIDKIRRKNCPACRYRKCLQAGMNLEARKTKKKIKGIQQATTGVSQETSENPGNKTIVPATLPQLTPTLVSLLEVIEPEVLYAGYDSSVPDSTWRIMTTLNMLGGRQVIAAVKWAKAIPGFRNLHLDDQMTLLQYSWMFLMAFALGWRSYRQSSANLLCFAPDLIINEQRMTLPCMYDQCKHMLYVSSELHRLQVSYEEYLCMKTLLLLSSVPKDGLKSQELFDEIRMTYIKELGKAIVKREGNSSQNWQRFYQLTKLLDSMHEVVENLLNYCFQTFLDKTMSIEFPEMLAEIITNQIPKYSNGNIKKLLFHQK
- Test description: Transrepression Assay (GITAR), TNFα-β-lactamase reporter in U937 cells
- Assay type: cell-based
- Design: U937 cells contain an endogenous glucocorticoid receptor (GR); endogenous in cells; host or cells: U937 cells stably transfected with the TNF-alpha promoter/beta-lactamase reporter
- Experimental context: U-937, activity repressed by 100 nM dexamethasone alone set as 100%; read-out: maximal activity in the transrepression (GITAR) assay
Observed property: Emax

Query string: Answer with the recorded Emax of COC(=O)c1cc(Cl)ccc1CCN(C[C@H]1CCC2=Cc3c(cnn3-c3ccc(F)cc3)C[C@@]21C)S(=O)(=O)CC(F)(F)F [Example 160] only.
Result string: > 5%

Query string: Answer with the recorded Emax of C[C@]12Cc3cnn(-c4ccc(F)cc4)c3C=C1CC[C@@H]2CN(CCc1ccccc1O)S(=O)(=O)Cc1cccc(C(F)(F)F)c1 [Example 122] only.
Result string: > 5%

Query string: Answer with the recorded Emax of CCCS(=O)(=O)N(CCc1ccccn1)C[C@H]1CCC2=Cc3c(cnn3-c3ccc(F)cc3)C[C@@]21C [Example 151] only.
Result string: > 5%

Query string: Answer with the recorded Emax of C[C@]12Cc3cnn(-c4ccc(F)cc4)c3C=C1CC[C@@H]2CN(CCO)S(=O)(=O)c1ccc(Oc2cccc(Cl)c2C#N)cc1 [Example 69] only.
Result string: > 5%

Query string: Answer with the recorded Emax of C[C@]12Cc3cnn(-c4ccc(F)cc4)c3C=C1CC[C@@H]2CN(CCO)S(=O)(=O)c1cc(Cl)c(Cl)s1 [Example 58] only.
Result string: > 5%

Further cases:
Query string: Answer with the recorded Emax of CN1CCOc2cc(S(=O)(=O)N(CC#N)C[C@H]3CCC4=Cc5c(cnn5-c5ccc(F)cc5)C[C@@]43C)ccc21 [Example 39] only.
Result string: > 5%

Query string: Answer with the recorded Emax of C[C@]12Cc3cnn(-c4ccc(F)cc4)c3C=C1CC[C@@H]2CN(CC1CC1)S(=O)(=O)Cc1ccccc1 [Example 21] only.
Result string: > 5%

Query string: Answer with the recorded Emax of C[C@]12Cc3cnn(-c4ccc(F)cc4)c3C=C1CC[C@@H]2CN(CCO)S(=O)(=O)Cc1cccc(C(F)(F)F)c1 [Example 63] only.
Result string: > 5%

Query string: Answer with the recorded Emax of C[C@]12Cc3cnn(-c4ccc(F)cc4)c3C=C1CC[C@@H]2CN(CCO)S(=O)(=O)c1ccc(F)cc1F [Example 82] only.
Result string: > 5%

Query string: Answer with the recorded Emax of CCN(C[C@H]1CCC2=Cc3c(cnn3-c3ccc(F)cc3)C[C@@]21C)S(=O)(=O)CC(F)(F)F [Example 179] only.
Result string: > 5%

Query string: Answer with the recorded Emax of C[C@]12Cc3cnn(-c4ccc(F)cc4)c3C=C1CC[C@@H]2CN(CCO)S(=O)(=O)c1cc(C(F)(F)F)ccc1Cl [Example 80] only.
Result string: > 5%

Query string: Answer with the recorded Emax of Cc1ccccc1S(=O)(=O)N(CCO)C[C@H]1CCC2=Cc3c(cnn3-c3ccc(F)cc3)C[C@@]21C [Example 77] only.
Result string: > 5%

Query string: Answer with the recorded Emax of Cc1noc(C)c1S(=O)(=O)N(CCc1ccccc1O)C[C@H]1CCC2=Cc3c(cnn3-c3ccc(F)cc3)C[C@@]21C [Example 123] only.
Result string: > 5%

Query string: Answer with the recorded Emax of COCCN(C[C@H]1CCC2=Cc3c(cnn3-c3ccc(F)cc3)C[C@@]21C)S(=O)(=O)c1ccccc1F [Example 94] only.
Result string: > 5%
